Target: T1, His-tagged PD-L1 ECD protein (ACROBiosystems) (human, UniProt Q9NZQ7 19-238)
T1 construct: Bought protein; also called PD-L1-His; PD-L1/His; not shown: His tag
T1 sequence (Q9NZQ7 19-238): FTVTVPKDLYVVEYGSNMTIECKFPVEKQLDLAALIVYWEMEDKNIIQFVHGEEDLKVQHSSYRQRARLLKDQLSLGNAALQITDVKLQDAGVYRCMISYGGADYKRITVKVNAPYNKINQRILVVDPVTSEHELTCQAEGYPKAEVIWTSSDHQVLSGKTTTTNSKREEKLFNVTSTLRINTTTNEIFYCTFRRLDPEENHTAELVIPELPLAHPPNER
Assay: SPR, supernatant IgG captured, PD-L1-His analyte
test-readout: koff (s⁻¹)
Express the result in s⁻¹ but write the number alone.

Please report the recorded koff for 53C1_VH.M2-VL.M1 (antibody, human IgG1, kappa, N297A, V domains shown, Chimeric mutant (VH N57A, VL K24R in the entries); human IgG1 effector-less Fc, kappa) VH: QVQLQQSGNELARPGASVRLSCKASGYIFTGYGITWVRQRPGQGLEWIGEIFPRRVATYYSEKFKGRATLTADISSSTAYMELRSLTSEDSAVYFCARDYDPYFALDYWGQGTSVTVSS VL: DIVMTQSHKFMSTSVGDRVSITCRASQDVSTAVDWYQQKPGQSPKLLIYSASYRYTGVPDRFTGSGSGTAFTFTISGEQAEDLAVYYCQQHYSIPFTFGGGTKLEIKR .
0.00018
